Attribution: patent US10526371B2

assay: Peptide self-assembly / gelation conditions; format: physicochemical; conditions: in mQ
Numbered stars: 1 amine (or outer) side, 2 acyl side, 3 side chain; on linkers, the order of the positions; unused ones are H or OH. Square brackets hold non-standard residues; d marks the D form. β3hCha = beta-3-homo-cyclohexylalanine, O=C(C[C@H](CC1CCCCC1)N[*:1])[*:2]; β3hF = N[C@H](CC(=O)O)Cc1ccccc1
Field: Gelation condition % (w/v). Provide a value for each of the substances that follow.

For H-Phe-Glu-β^3hPhe-Phe-Gln-Phe-Gln-β^3hPhe-Phe-Lys-NH2 (H-FE[β3hF]FQFQ[β3hF]FK-NH2; SMILES NCCCC[C@H](NC(=O)[C@H](Cc1ccccc1)NC(=O)C[C@H](Cc1ccccc1)NC(=O)[C@H](CCC(N)=O)NC(=O)[C@H](Cc1ccccc1)NC(=O)[C@H](CCC(N)=O)NC(=O)[C@H](Cc1ccccc1)NC(=O)C[C@H](Cc1ccccc1)NC(=O)[C@H](CCC(=O)O)NC(=O)[C@@H](N)Cc1ccccc1)C(N)=O) [SEQ ID NO 22] , write its Gelation condition % (w/v). 2% (mQ) % (w/v)

For H-Phe-Gln-β^3hPhe-Phe-Gln-β^3hPhe-Phe-Lys-OH (H-FQ[β3hF]FQ[β3hF]FK-OH; SMILES NCCCC[C@H](NC(=O)[C@H](Cc1ccccc1)NC(=O)C[C@H](Cc1ccccc1)NC(=O)[C@H](CCC(N)=O)NC(=O)[C@H](Cc1ccccc1)NC(=O)C[C@H](Cc1ccccc1)NC(=O)[C@H](CCC(N)=O)NC(=O)[C@@H](N)Cc1ccccc1)C(=O)O) [SEQ ID NO 5] , write its Gelation condition % (w/v). 2% (mQ) % (w/v)

For H-Phe-Glu-β^3hPhe-Phe-Lys-β^3hPhe-Phe-NH2 (H-FE[β3hF]FK[β3hF]F-NH2; SMILES NCCCC[C@H](NC(=O)[C@H](Cc1ccccc1)NC(=O)C[C@H](Cc1ccccc1)NC(=O)[C@H](CCC(=O)O)NC(=O)[C@@H](N)Cc1ccccc1)C(=O)N[C@H](CC(=O)N[C@@H](Cc1ccccc1)C(N)=O)Cc1ccccc1) [SEQ ID NO 16] , write its Gelation condition % (w/v). 2% (mQ) % (w/v)

For H-Phe-Glu-β^3hCha-Phe-Gln-β^3hCha-Phe-Lys-OH (H-FE[β3hCha]FQ[β3hCha]FK-OH) [SEQ ID NO 8] , write its Gelation condition % (w/v). 3% (mQ) % (w/v)

For H-Phe-Glu-β^3hPhe-Phe-Lys-OH (H-FE[β3hF]FK-OH; SMILES NCCCC[C@H](NC(=O)[C@H](Cc1ccccc1)NC(=O)C[C@H](Cc1ccccc1)NC(=O)[C@H](CCC(=O)O)NC(=O)[C@@H](N)Cc1ccccc1)C(=O)O) [SEQ ID NO 7] , write its Gelation condition % (w/v). 3% (mQ) % (w/v)

====

assay: Peptide self-assembly / gelation conditions; assay type: physicochemical; details: in PBS
Square brackets hold non-standard residues; d marks the D form. β3hF = N[C@H](CC(=O)O)Cc1ccccc1
Field: Gelation condition % (w/v). Provide a value for each of the substances that follow.

For H-Phe-Glu-Phe-Gln-β^3hPhe-Phe-Lys-NH2 (H-FEFQ[β3hF]FK-NH2; SMILES NCCCC[C@H](NC(=O)[C@H](Cc1ccccc1)NC(=O)C[C@H](Cc1ccccc1)NC(=O)[C@H](CCC(N)=O)NC(=O)[C@H](Cc1ccccc1)NC(=O)[C@H](CCC(=O)O)NC(=O)[C@@H](N)Cc1ccccc1)C(N)=O) [SEQ ID NO 18] , write its Gelation condition % (w/v). 2% (PBS) % (w/v)

For H-Phe-Glu-β^3hPhe-Phe-Gln-Phe-Lys-NH2 (H-FE[β3hF]FQFK-NH2; SMILES NCCCC[C@H](NC(=O)[C@H](Cc1ccccc1)NC(=O)[C@H](CCC(N)=O)NC(=O)[C@H](Cc1ccccc1)NC(=O)C[C@H](Cc1ccccc1)NC(=O)[C@H](CCC(=O)O)NC(=O)[C@@H](N)Cc1ccccc1)C(N)=O) [SEQ ID NO 13] , write its Gelation condition % (w/v). 2% (PBS) % (w/v)

For H-Phe-Glu-β^3hPhe-Phe-Lys-NH2 (H-FE[β3hF]FK-NH2; SMILES NCCCC[C@H](NC(=O)[C@H](Cc1ccccc1)NC(=O)C[C@H](Cc1ccccc1)NC(=O)[C@H](CCC(=O)O)NC(=O)[C@@H](N)Cc1ccccc1)C(N)=O) [SEQ ID NO 6] , write its Gelation condition % (w/v). 3% (PBS) % (w/v)

For H-Trp-Glu-β^3hPhe-Phe-Gln-Trp-Lys-NH2 (H-WE[β3hF]FQWK-NH2; SMILES NCCCC[C@H](NC(=O)[C@H](Cc1c[nH]c2ccccc12)NC(=O)[C@H](CCC(N)=O)NC(=O)[C@H](Cc1ccccc1)NC(=O)C[C@H](Cc1ccccc1)NC(=O)[C@H](CCC(=O)O)NC(=O)[C@@H](N)Cc1c[nH]c2ccccc12)C(N)=O) [SEQ ID NO 15] , write its Gelation condition % (w/v). 2% (PBS) % (w/v)

For H-Phe-Glu-β^3Phe-Tyr-Gln-β^3hPhe-Tyr-Lys-OH (H-FE[β3hF]YQ[β3hF]YK-OH) [SEQ ID NO 4] , write its Gelation condition % (w/v). 2% (PBS) % (w/v)

For H-β^3hPhe-Phe-Glu-Phe-Gln-Phe-Lys-NH2 (H-[β3hF]FEFQFK-NH2; SMILES NCCCC[C@H](NC(=O)[C@H](Cc1ccccc1)NC(=O)[C@H](CCC(N)=O)NC(=O)[C@H](Cc1ccccc1)NC(=O)[C@H](CCC(=O)O)NC(=O)[C@H](Cc1ccccc1)NC(=O)C[C@@H](N)Cc1ccccc1)C(N)=O) [SEQ ID NO 17] , write its Gelation condition % (w/v). 2% (PBS) % (w/v)

For H-β^3hPhe-Phe-Glu-β^3hPhe-Phe-Lys-NH2 (H-[β3hF]FE[β3hF]FK-NH2; SMILES NCCCC[C@H](NC(=O)[C@H](Cc1ccccc1)NC(=O)C[C@H](Cc1ccccc1)NC(=O)[C@H](CCC(=O)O)NC(=O)[C@H](Cc1ccccc1)NC(=O)C[C@@H](N)Cc1ccccc1)C(N)=O) [SEQ ID NO 10] , write its Gelation condition % (w/v). 1% (PBS) % (w/v)

====

Assay: Peptide self-assembly / gelation conditions
Format: physicochemical
Settings: in PBS
Procedure: Peptide self-assembly was analyzed in i) a PBS solution (10 mM), ii) a PBS/mQ mixture (1:1 v:v, mQ water with a resistivity of […]) or iii) a NaCl aqueous solution (150 mM). The TFA salt of reference peptide SEQ NO. 23 (1 mg) was dissolved in 50 μl mQ water, followed by the addition of 50 μl PBS solution. […] All self-assembled gels were analyzed by circular dichroism (CD) and Fourier transform infrared (FT-IR) spectroscopy, as well as cryogenic transmission electron microscopy (Cryo-TEM). […]
Square brackets hold non-standard residues; d marks the D form. β3hF = N[C@H](CC(=O)O)Cc1ccccc1
quantity kind: Gelation condition % (w/v)

For H-Phe-β^3hPhe-Glu-Phe-Gln-Phe-Lys-NH2 (H-F[β3hF]EFQFK-NH2; SMILES NCCCC[C@H](NC(=O)[C@H](Cc1ccccc1)NC(=O)[C@H](CCC(N)=O)NC(=O)[C@H](Cc1ccccc1)NC(=O)[C@H](CCC(=O)O)NC(=O)C[C@H](Cc1ccccc1)NC(=O)[C@@H](N)Cc1ccccc1)C(N)=O) [SEQ ID NO 19] , write its Gelation condition % (w/v). 2% (PBS) % (w/v)

For H-Phe-Gln-β^3hPhe-Phe-Lys-NH2 (H-FQ[β3hF]FK-NH2; SMILES NCCCC[C@H](NC(=O)[C@H](Cc1ccccc1)NC(=O)C[C@H](Cc1ccccc1)NC(=O)[C@H](CCC(N)=O)NC(=O)[C@@H](N)Cc1ccccc1)C(N)=O) [SEQ ID NO 9] , write its Gelation condition % (w/v). 3% (PBS) % (w/v)

For H-Phe-Glu-β^3hPhe-Phe-Lys-Phe-NH2 (H-FE[β3hF]FKF-NH2; SMILES NCCCC[C@H](NC(=O)[C@H](Cc1ccccc1)NC(=O)C[C@H](Cc1ccccc1)NC(=O)[C@H](CCC(=O)O)NC(=O)[C@@H](N)Cc1ccccc1)C(=O)N[C@@H](Cc1ccccc1)C(N)=O) [SEQ ID NO 11] , write its Gelation condition % (w/v). 2% (PBS) % (w/v)
